# Conditions: male, Sprague-Dawley, rat, plasma, other: intranasal, 10 mg/kg, Mean plasma concentration of THC, Intranasal (10 mg/kg), 90:10 propylene glycol/ethanol, n = 5, rat, time 360 minutes
Quantity kind: concentration at 360 minutes (ng/mL)
Give the quantity in ng/mL, number only.

Exam item: Tell me the measured concentration at 360 minutes of CCCCCc1cc(O)c2c(c1)OC(C)(C)[C@@H]1CCC(C)=C[C@@H]21 [THC, delta-9-tetrahydrocannabinol] , please.
Marked response: 19

====

# Conditions: male, Sprague-Dawley, rat, plasma, iv, 0.99 mg/kg
Quantity kind: Cmax (ng/mL)
Give the quantity in ng/mL, number only.

Exam item: Tell me the measured Cmax of CCCCCc1cc(O)c2c(c1)OC(C)(C)[C@@H]1CCC(C)=C[C@@H]21 [THC, delta-9-tetrahydrocannabinol] , please.
Marked response: 693

====

# Conditions: male, Sprague-Dawley, rat, plasma, other: intranasal, 10 mg/kg, Mean plasma concentration of THC, Intranasal (10 mg/kg), 90:10 propylene glycol/ethanol, n = 5, rat, time 240 minutes
Quantity kind: concentration at 240 minutes (ng/mL)
Give the quantity in ng/mL, number only.

Exam item: Tell me the measured concentration at 240 minutes of CCCCCc1cc(O)c2c(c1)OC(C)(C)[C@@H]1CCC(C)=C[C@@H]21 [THC, delta-9-tetrahydrocannabinol] , please.
Marked response: 24

====

# Conditions: male, Sprague-Dawley, rat, plasma, other: intranasal, 10 mg/kg, Mean plasma concentration of THC, Intranasal (10 mg/kg), 90:10 propylene glycol/ethanol, n = 5, rat, time 0 minutes
Quantity kind: concentration at 0 minutes (ng/mL)
Give the quantity in ng/mL, number only.

Exam item: Tell me the measured concentration at 0 minutes of CCCCCc1cc(O)c2c(c1)OC(C)(C)[C@@H]1CCC(C)=C[C@@H]21 [THC, delta-9-tetrahydrocannabinol] , please.
Marked response: 0

====

# Conditions: male, Sprague-Dawley, rat, plasma, inhaled or intranasal, 9.84 mg/kg
Quantity kind: Cmax (ng/mL)
Give the quantity in ng/mL, number only.

Exam item: Tell me the measured Cmax of CCCCCc1cc(O)c2c(c1)OC(C)(C)[C@@H]1CCC(C)=C[C@@H]21 [THC, delta-9-tetrahydrocannabinol] , please.
Marked response: 55

====

# Conditions: male, Sprague-Dawley, rat, plasma, iv, 1 mg/kg, Mean plasma concentration of THC, Intravenous (1 mg/kg), propylene glycol, n = 3, rat, time 360 minutes
Quantity kind: concentration at 360 minutes
Note: state the figure and append the unit.

Exam item: Tell me the measured concentration at 360 minutes of CCCCCc1cc(O)c2c(c1)OC(C)(C)[C@@H]1CCC(C)=C[C@@H]21 [THC, delta-9-tetrahydrocannabinol] , please.
Marked response: 0.022 µg/mL

====

# Conditions: male, Sprague-Dawley, rat, plasma, iv, 1 mg/kg, Mean plasma concentration of THC, Intravenous (1 mg/kg), propylene glycol, n = 3, rat, time 480 minutes
Quantity kind: concentration at 480 minutes (ng/mL)
Give the quantity in ng/mL, number only.

Exam item: Tell me the measured concentration at 480 minutes of CCCCCc1cc(O)c2c(c1)OC(C)(C)[C@@H]1CCC(C)=C[C@@H]21 [THC, delta-9-tetrahydrocannabinol] , please.
Marked response: 12

====

# Conditions: male, Sprague-Dawley, rat, plasma, inhaled or intranasal, 9.84 mg/kg
Quantity kind: Tmax (h)
Give the quantity in h, number only.

Exam item: Tell me the measured Tmax of CCCCCc1cc(O)c2c(c1)OC(C)(C)[C@@H]1CCC(C)=C[C@@H]21 [THC, delta-9-tetrahydrocannabinol] , please.
Marked response: 3
